Provide the recorded pEC50 for the entries that follow.
measured-on: MerTK (Homo sapiens)
Construct: Seed HUVECs (10K cells/well) in EBM-2 complete media
Sequence (Q12866 21-999): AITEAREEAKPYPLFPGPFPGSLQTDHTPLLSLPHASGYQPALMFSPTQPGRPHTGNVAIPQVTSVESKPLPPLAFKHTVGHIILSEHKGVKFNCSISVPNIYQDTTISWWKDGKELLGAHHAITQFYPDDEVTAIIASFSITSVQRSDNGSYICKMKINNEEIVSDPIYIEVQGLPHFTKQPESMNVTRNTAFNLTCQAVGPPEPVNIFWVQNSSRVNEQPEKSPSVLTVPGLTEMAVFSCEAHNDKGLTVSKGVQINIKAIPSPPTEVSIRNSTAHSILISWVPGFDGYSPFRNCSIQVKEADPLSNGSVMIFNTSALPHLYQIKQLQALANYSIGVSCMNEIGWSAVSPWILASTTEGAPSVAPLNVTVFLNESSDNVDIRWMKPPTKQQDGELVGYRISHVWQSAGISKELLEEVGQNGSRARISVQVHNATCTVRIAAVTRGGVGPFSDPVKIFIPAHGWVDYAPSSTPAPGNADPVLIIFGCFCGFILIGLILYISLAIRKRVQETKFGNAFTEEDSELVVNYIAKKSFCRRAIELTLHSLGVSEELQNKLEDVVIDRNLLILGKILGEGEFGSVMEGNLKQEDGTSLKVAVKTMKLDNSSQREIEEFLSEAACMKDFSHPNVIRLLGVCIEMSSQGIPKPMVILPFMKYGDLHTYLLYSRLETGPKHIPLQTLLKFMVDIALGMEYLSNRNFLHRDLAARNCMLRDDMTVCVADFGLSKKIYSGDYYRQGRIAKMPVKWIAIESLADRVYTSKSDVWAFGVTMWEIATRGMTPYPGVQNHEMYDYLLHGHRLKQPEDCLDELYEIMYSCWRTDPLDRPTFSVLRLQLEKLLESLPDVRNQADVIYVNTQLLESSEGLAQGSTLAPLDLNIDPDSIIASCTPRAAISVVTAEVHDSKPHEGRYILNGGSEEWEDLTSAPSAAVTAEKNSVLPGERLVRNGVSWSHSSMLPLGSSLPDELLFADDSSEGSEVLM
protocol-text: PAKT HTRF-HUVEC assay (pAkt Ser473 HTRF after anti-human MerTK-XL stimulation)
run-parameters: HUVEC cells, 1 hour compound, stimulated with anti-human MerTK-XL 1 ug/mL for 10 minutes, read-out: inhibition of MerTK
Give bare numbers, as −log10 of the molar value.

Here are 5 molecules together with their reported answers.
molecule	pEC50
CCCCNc1ncc2c3ccc(CN4CCN(C)CC4)cc3c(=O)n([C@H]3CC[C@H](C(=O)NCC4CC4)CC3)c2n1	6.73
O=c1c2cc(CN3CCNCC3)ccc2c2cnc(NCC3CC3)nc2n1[C@H]1CC[C@H](O)CC1 [Compound 171]	6.51
CN1CCN(Cc2ccc3c(c2)c(=O)n(C2CCC(C)(O)CC2)c2nc(NCC4CC4)ncc32)CC1 (stereo not shown)	7.44
O=c1c2cc(CN3CCOCC3)ccc2c2cnc(NCC3CCC3)nc2n1[C@H]1CC[C@H](O)CC1	7.51
CCCCNc1ncc2c3ccc(CN4CCN(C)CC4)cc3c(=O)n([C@@H]3CC[C@@H](O)C3)c2n1	6.58

List reported pEC50 for each of these molecules:
1. N#CC1CCN(Cc2ccc3c(c2)c(=O)n([C@H]2CC[C@H](O)CC2)c2nc(NCC4CC4)ncc32)CC1
2. O=c1c2cc(CN3CCn4ncnc4C3)ccc2c2cnc(NCC3CC3)nc2n1[C@H]1CC[C@H](O)CC1 [Compound 151]

Result ::
1: 7.24; 2: 7.19

src = patent US11110082B2
